- target.under.test: Serine protease 1 (Homo sapiens) (UniProt P07477)
- Sequence (P07477 whole entry): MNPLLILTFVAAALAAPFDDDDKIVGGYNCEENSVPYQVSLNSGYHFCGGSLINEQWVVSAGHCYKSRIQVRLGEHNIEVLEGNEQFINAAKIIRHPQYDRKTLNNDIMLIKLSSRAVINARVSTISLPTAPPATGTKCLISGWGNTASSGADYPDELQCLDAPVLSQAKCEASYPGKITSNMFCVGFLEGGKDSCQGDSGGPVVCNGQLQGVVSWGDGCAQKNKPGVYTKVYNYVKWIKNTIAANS
- assay.overview: Inhibition of beta-trypsin (unknown origin) at 25 nM using Bz-FVRpNA substrate by spectrophotometry method
Activity calls are given as the source filed them. The calls are words filed in the database; no cut-off is given here. Bridge positions count the residues as written; N and C are the ends. Peptide text beside a SMILES is read from it.
test.readout: inhibition

compound | result
CC[C@H](C)[C@@H]1NC(=O)[C@@H]2CCCN2C(=O)[C@@H]2CCCN2C(=O)CNC(=O)[C@H](CO)NC(=O)[C@H](CCCNC(=N)N)NC(=O)[C@H]([C@@H](C)O)NC(=O)[C@@H]2CSSC[C@H](NC1=O)C(=O)N[C@@H](CC(N)=O)C(=O)N1CCC[C@H]1C(=O)N[C@@H](CC(N)=O)C(=O)NCC(=O)N[C@@H]([C@@H](C)O)C(=O)N2 (cyclo(CNPNGTCTRSGPPI); disulfide 1-7) | inactive
CC[C@H](C)[C@@H]1NC(=O)[C@@H]2CCCN2C(=O)[C@@H]2CCCN2C(=O)[C@H](CC(=O)O)NC(=O)[C@H](CO)NC(=O)[C@H](CCCNC(=N)N)NC(=O)[C@H]([C@@H](C)O)NC(=O)[C@@H]2CSSC[C@H](NC1=O)C(=O)N[C@@H](CC(N)=O)C(=O)N1CCC[C@H]1C(=O)N[C@@H](CC(N)=O)C(=O)NCC(=O)N[C@@H]([C@@H](C)O)C(=O)N2 (cyclo(CNPNGTCTRSDPPI); disulfide 1-7) | inactive
CC[C@H](C)[C@@H]1NC(=O)[C@@H]2CCCN2C(=O)[C@@H]2CCCN2C(=O)[C@H](C(C)C)NC(=O)[C@H](CO)NC(=O)[C@H](CCCNC(=N)N)NC(=O)[C@H]([C@@H](C)O)NC(=O)[C@@H]2CSSC[C@H](NC1=O)C(=O)N[C@@H](CC(N)=O)C(=O)N1CCC[C@H]1C(=O)N[C@@H](CC(N)=O)C(=O)NCC(=O)N[C@@H]([C@@H](C)O)C(=O)N2 (cyclo(CNPNGTCTRSVPPI); disulfide 1-7) | 75%
CC[C@H](C)[C@@H]1NC(=O)[C@@H]2CCCN2C(=O)[C@@H]2CCCN2C(=O)[C@H](CC(C)C)NC(=O)[C@H](CO)NC(=O)[C@H](CCCNC(=N)N)NC(=O)[C@H]([C@@H](C)O)NC(=O)[C@@H]2CSSC[C@H](NC1=O)C(=O)N[C@@H](CC(N)=O)C(=O)N1CCC[C@H]1C(=O)N[C@@H](CC(N)=O)C(=O)NCC(=O)N[C@@H]([C@@H](C)O)C(=O)N2 (cyclo(CNPNGTCTRSLPPI); disulfide 1-7) | 52%
CC[C@H](C)[C@@H]1NC(=O)[C@@H]2CCCN2C(=O)[C@@H]2CCCN2C(=O)[C@H](CCC(=O)O)NC(=O)[C@H](CO)NC(=O)[C@H](CCCNC(=N)N)NC(=O)[C@H]([C@@H](C)O)NC(=O)[C@@H]2CSSC[C@H](NC1=O)C(=O)N[C@@H](CC(N)=O)C(=O)N1CCC[C@H]1C(=O)N[C@@H](CC(N)=O)C(=O)NCC(=O)N[C@@H]([C@@H](C)O)C(=O)N2 (cyclo(CNPNGTCTRSEPPI); disulfide 1-7) | inactive
CC[C@H](C)[C@@H]1NC(=O)[C@@H]2CCCN2C(=O)[C@@H]2CCCN2C(=O)[C@H]([C@@H](C)CC)NC(=O)[C@H](CO)NC(=O)[C@H](CCCNC(=N)N)NC(=O)[C@H]([C@@H](C)O)NC(=O)[C@@H]2CSSC[C@H](NC1=O)C(=O)N[C@@H](CC(N)=O)C(=O)N1CCC[C@H]1C(=O)N[C@@H](CC(N)=O)C(=O)NCC(=O)N[C@@H]([C@@H](C)O)C(=O)N2 (cyclo(CNPNGTCTRSIPPI); disulfide 1-7) | 80%
CC[C@H](C)[C@@H]1NC(=O)[C@@H]2CCCN2C(=O)[C@@H]2CCCN2C(=O)[C@@H]2CCCN2C(=O)[C@H](CO)NC(=O)[C@H](CCCNC(=N)N)NC(=O)[C@H]([C@@H](C)O)NC(=O)[C@@H]2CSSC[C@H](NC1=O)C(=O)N[C@@H](CC(N)=O)C(=O)N1CCC[C@H]1C(=O)N[C@@H](CC(N)=O)C(=O)NCC(=O)N[C@@H]([C@@H](C)O)C(=O)N2 (cyclo(CNPNGTCTRSPPPI); disulfide 1-7) | inactive
CC[C@H](C)[C@@H]1NC(=O)[C@@H]2CCCN2C(=O)[C@@H]2CCCN2C(=O)[C@H](CCCNC(=N)N)NC(=O)[C@H](CO)NC(=O)[C@H](CCCNC(=N)N)NC(=O)[C@H]([C@@H](C)O)NC(=O)[C@@H]2CSSC[C@H](NC1=O)C(=O)N[C@@H](CC(N)=O)C(=O)N1CCC[C@H]1C(=O)N[C@@H](CC(N)=O)C(=O)NCC(=O)N[C@@H]([C@@H](C)O)C(=O)N2 (cyclo(CNPNGTCTRSRPPI); disulfide 1-7) | 65%

###

- target.under.test: Kallikrein-5 (Homo sapiens) (UniProt Q9Y337)
- Sequence (Q9Y337 whole entry): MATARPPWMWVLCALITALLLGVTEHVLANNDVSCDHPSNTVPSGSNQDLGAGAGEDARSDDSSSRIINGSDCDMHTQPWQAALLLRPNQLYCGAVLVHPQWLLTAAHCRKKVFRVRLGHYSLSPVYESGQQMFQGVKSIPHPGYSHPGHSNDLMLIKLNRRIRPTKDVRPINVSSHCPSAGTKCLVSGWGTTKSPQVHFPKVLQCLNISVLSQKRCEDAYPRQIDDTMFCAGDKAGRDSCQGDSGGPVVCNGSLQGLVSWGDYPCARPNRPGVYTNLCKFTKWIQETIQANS
- assay.overview: Inhibition of KLK5 (unknown origin) expressed in Pichia pastoris X33 at 50 nM using Ac-YRSR-pNA by spectrophotometry method
The source made the active and inactive calls. No cut-off for these calls is given here. Bridge positions count the residues as written; N and C are the ends. Square brackets hold non-standard residues; d marks the D form. Peptide text beside a SMILES is read from it. Bip = N[C@@H](Cc1ccc(-c2ccccc2)cc1)C(=O)O
Outcomes: yes (1) = active, no (0) = inactive

compound | target.under.test | assigned.label
CC[C@H](C)[C@@H]1NC(=O)[C@@H]2CCCN2C(=O)[C@@H]2CCCN2C(=O)[C@H](Cc2ccc(-c3ccccc3)cc2)NC(=O)[C@H](CO)NC(=O)[C@H](CCCNC(=N)N)NC(=O)[C@H]([C@@H](C)O)NC(=O)[C@@H]2CSSC[C@H](NC1=O)C(=O)N[C@@H](CC(N)=O)C(=O)N1CCC[C@H]1C(=O)N[C@@H](CC(N)=O)C(=O)NCC(=O)N[C@@H]([C@@H](C)O)C(=O)N2 (cyclo([Bip]PPICNPNGTCTRS); disulfide 5-11) | Kallikrein-5 (Homo sapiens) (UniProt Q9Y337) | yes (1)
CC[C@H](C)[C@@H]1NC(=O)[C@@H]2CCCN2C(=O)[C@@H]2CCCN2C(=O)[C@H](Cc2c[nH]c3ccccc23)NC(=O)[C@H](CO)NC(=O)[C@H](CCCNC(=N)N)NC(=O)[C@H]([C@@H](C)O)NC(=O)[C@@H]2CSSC[C@H](NC1=O)C(=O)N[C@@H](CC(N)=O)C(=O)N1CCC[C@H]1C(=O)N[C@@H](CC(N)=O)C(=O)NCC(=O)N[C@@H]([C@@H](C)O)C(=O)N2 (cyclo(CNPNGTCTRSWPPI); disulfide 1-7) | Kallikrein-5 (Homo sapiens) (UniProt Q9Y337) | yes (1)
CC[C@H](C)[C@@H]1NC(=O)[C@@H]2CCCN2C(=O)[C@@H]2CCCN2C(=O)[C@H](CO)NC(=O)[C@H](CO)NC(=O)[C@H](CCCNC(=N)N)NC(=O)[C@H]([C@@H](C)O)NC(=O)[C@@H]2CSSC[C@H](NC1=O)C(=O)N[C@@H](CC(N)=O)C(=O)N1CCC[C@H]1C(=O)N[C@@H](CC(N)=O)C(=O)NCC(=O)N[C@@H]([C@@H](C)O)C(=O)N2 (cyclo(CNPNGTCTRSSPPI); disulfide 1-7) | Kallikrein-5 (Homo sapiens) (UniProt Q9Y337) | no (0)

###

- target.under.test: Coagulation factor XII (Homo sapiens) (UniProt P00748)
- Sequence (whole entry): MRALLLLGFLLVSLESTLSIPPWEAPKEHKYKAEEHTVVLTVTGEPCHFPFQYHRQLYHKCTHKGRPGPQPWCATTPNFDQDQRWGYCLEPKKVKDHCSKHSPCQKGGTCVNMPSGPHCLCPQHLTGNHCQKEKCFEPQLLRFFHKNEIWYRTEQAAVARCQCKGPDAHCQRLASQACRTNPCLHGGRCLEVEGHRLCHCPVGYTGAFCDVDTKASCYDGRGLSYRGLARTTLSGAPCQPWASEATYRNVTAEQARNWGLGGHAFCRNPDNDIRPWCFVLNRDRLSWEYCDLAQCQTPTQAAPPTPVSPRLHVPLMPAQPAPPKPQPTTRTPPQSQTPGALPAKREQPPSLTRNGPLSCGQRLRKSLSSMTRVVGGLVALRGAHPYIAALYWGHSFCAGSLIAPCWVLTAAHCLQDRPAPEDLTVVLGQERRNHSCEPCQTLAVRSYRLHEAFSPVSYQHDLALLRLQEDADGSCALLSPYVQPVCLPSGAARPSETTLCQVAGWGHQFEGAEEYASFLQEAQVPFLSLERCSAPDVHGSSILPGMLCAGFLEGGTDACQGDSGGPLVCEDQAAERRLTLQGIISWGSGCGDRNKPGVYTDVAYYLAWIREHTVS
- assay.overview: Inhibition of factor 12a-alpha (unknown origin) at 10 uM using Ac-QRFRpNA substrate by spectrophotometry method
Bridge positions count the residues as written; N and C are the ends. Square brackets hold non-standard residues; d marks the D form. Peptide text beside a SMILES is read from it. Bip = N[C@@H](Cc1ccc(-c2ccccc2)cc1)C(=O)O

compound | inhibition [%]
CC[C@H](C)[C@@H]1NC(=O)[C@@H]2CCCN2C(=O)[C@@H]2CCCN2C(=O)[C@H](Cc2ccc(-c3ccccc3)cc2)NC(=O)[C@H](CO)NC(=O)[C@H](CCCNC(=N)N)NC(=O)[C@H]([C@@H](C)O)NC(=O)[C@@H]2CSSC[C@H](NC1=O)C(=O)N[C@@H](CC(N)=O)C(=O)N1CCC[C@H]1C(=O)N[C@@H](CC(N)=O)C(=O)NCC(=O)N[C@@H]([C@@H](C)O)C(=O)N2 (cyclo([Bip]PPICNPNGTCTRS); disulfide 5-11) | 80
CC[C@H](C)[C@@H]1NC(=O)[C@@H]2CCCN2C(=O)[C@@H]2CCCN2C(=O)[C@H](Cc2ccc(O)cc2)NC(=O)[C@H](CO)NC(=O)[C@H](CCCNC(=N)N)NC(=O)[C@H]([C@@H](C)O)NC(=O)[C@@H]2CSSC[C@H](NC1=O)C(=O)N[C@@H](CC(N)=O)C(=O)N1CCC[C@H]1C(=O)N[C@@H](CC(N)=O)C(=O)NCC(=O)N[C@@H]([C@@H](C)O)C(=O)N2 (cyclo(CNPNGTCTRSYPPI); disulfide 1-7) | 75
CC[C@H](C)[C@@H]1NC(=O)[C@@H]2CCCN2C(=O)[C@@H]2CCCN2C(=O)[C@H](Cc2c[nH]c3ccccc23)NC(=O)[C@H](CO)NC(=O)[C@H](CCCNC(=N)N)NC(=O)[C@H]([C@@H](C)O)NC(=O)[C@@H]2CSSC[C@H](NC1=O)C(=O)N[C@@H](CC(N)=O)C(=O)N1CCC[C@H]1C(=O)N[C@@H](CC(N)=O)C(=O)NCC(=O)N[C@@H]([C@@H](C)O)C(=O)N2 (cyclo(CNPNGTCTRSWPPI); disulfide 1-7) | 87
CC[C@H](C)[C@@H]1NC(=O)[C@@H]2CCCN2C(=O)[C@@H]2CCCN2C(=O)[C@H](C(C)C)NC(=O)[C@H](CO)NC(=O)[C@H](CCCNC(=N)N)NC(=O)[C@H]([C@@H](C)O)NC(=O)[C@@H]2CSSC[C@H](NC1=O)C(=O)N[C@@H](CC(N)=O)C(=O)N1CCC[C@H]1C(=O)N[C@@H](CC(N)=O)C(=O)NCC(=O)N[C@@H]([C@@H](C)O)C(=O)N2 (cyclo(CNPNGTCTRSVPPI); disulfide 1-7) | 80
CC[C@H](C)[C@@H]1NC(=O)[C@@H]2CCCN2C(=O)[C@@H]2CCCN2C(=O)[C@H]([C@@H](C)CC)NC(=O)[C@H](CO)NC(=O)[C@H](CCCNC(=N)N)NC(=O)[C@H]([C@@H](C)O)NC(=O)[C@@H]2CSSC[C@H](NC1=O)C(=O)N[C@@H](CC(N)=O)C(=O)N1CCC[C@H]1C(=O)N[C@@H](CC(N)=O)C(=O)NCC(=O)N[C@@H]([C@@H](C)O)C(=O)N2 (cyclo(CNPNGTCTRSIPPI); disulfide 1-7) | 85
